# SYSTEM TESTED: MRGPRX4 (Homo sapiens)
# Sequence (Q96LA9 whole entry): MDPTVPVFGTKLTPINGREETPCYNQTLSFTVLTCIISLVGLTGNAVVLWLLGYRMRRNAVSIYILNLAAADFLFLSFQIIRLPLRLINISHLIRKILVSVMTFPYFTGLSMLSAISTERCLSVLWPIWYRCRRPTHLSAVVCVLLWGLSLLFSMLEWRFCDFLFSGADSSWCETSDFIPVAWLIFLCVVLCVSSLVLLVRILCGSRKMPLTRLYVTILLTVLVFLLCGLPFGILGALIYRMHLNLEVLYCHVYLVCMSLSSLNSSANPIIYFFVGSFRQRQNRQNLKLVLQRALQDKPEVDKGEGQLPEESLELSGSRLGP
# PROTOCOL DESCRIPTION: MRGPRX4 activation, Fluo-8 Ca2+ FLIPR assay in HEK293T cells stably expressing MRGPRX4
# Assay type: cell-based
# RECORDED CONDITIONS: Conc. (Log[M]) −4
RECORDED METRIC: MRGPRX4 activation, fluorescence change (dF/F0), Average
One number for each entry.

A selection of reference data follows.
{"SMILES NOTATION": "C[C@H](CCC(=O)O)[C@H]1CC[C@H]2[C@@H]3CC[C@@H]4CC(=O)CC[C@]4(C)[C@H]3CC[C@]12C", "ENDPOINT RESULT": 0.416}
{"SMILES NOTATION": "C[C@H](CCC(=O)O)[C@H]1CC[C@H]2[C@@H]3CC[C@@H]4C[C@@H](O)CC[C@]4(C)[C@H]3C[C@@H](O)[C@]12C", "ENDPOINT RESULT": 0.259}
{"SMILES NOTATION": "C[C@H](CC/C=C/C(=O)O)[C@H]1CC[C@H]2[C@@H]3CC[C@@H]4C[C@H](O)CC[C@]4(C)[C@H]3C[C@H](O)[C@]12C", "ENDPOINT RESULT": 0.049}
{"SMILES NOTATION": "CC[C@H]1[C@@H](O)[C@@H]2[C@H](CC[C@]3(C)[C@@H]([C@H](C)CCC(=O)O)CC[C@@H]23)[C@@]2(C)CCCC[C@@H]12", "ENDPOINT RESULT": 0.019}
{"SMILES NOTATION": "CC[C@H]1[C@@H](O)[C@@H]2[C@H](CC[C@]3(C)[C@@H]([C@H](C)CCNC(=O)NS(=O)(=O)c4ccc(C(C)(C)CO)cc4)CC[C@@H]23)[C@@]2(C)CCCC[C@@H]12", "ENDPOINT RESULT": 0.087}

# ---- query molecule ----
IN: Look at this molecule and give its reported MRGPRX4 activation, fluorescence change (dF/F0), Average. CC[C@H]1[C@@H](O)[C@@H]2[C@H](CC[C@]3(C)[C@@H]([C@H](C)CCC(=O)OC)CC[C@@H]23)[C@@]2(C)CCCC[C@@H]12
OUT: 0.098

###

# SYSTEM TESTED: human FXR (NR1H4) (Homo sapiens)
# Sequence (Q96RI1 1-476 isoform Q96RI1-1): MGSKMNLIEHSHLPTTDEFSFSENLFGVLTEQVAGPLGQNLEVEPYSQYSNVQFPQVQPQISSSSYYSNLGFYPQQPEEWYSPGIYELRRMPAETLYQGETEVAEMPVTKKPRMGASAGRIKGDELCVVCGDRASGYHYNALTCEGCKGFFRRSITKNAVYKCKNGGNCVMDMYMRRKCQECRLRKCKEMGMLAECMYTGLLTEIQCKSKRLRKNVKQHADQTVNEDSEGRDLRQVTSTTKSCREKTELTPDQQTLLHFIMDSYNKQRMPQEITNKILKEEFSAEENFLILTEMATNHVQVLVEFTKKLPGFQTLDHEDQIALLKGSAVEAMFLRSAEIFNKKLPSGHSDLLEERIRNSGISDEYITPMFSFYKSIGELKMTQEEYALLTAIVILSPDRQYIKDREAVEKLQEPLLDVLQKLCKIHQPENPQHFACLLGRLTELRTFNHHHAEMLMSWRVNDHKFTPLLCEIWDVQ
# PROTOCOL DESCRIPTION: Human FXR (NR1H4) agonist assessment, FXRE-NanoLuc reporter in HEK293T cells
# Assay type: cell-based
# RECORDED CONDITIONS: FXR activation, HEK293T FXRE-NanoLuc reporter, 24 hr; read-out: EC50
# Experimental: As those skilled in the art appreciate, various technologies are available for assessment of FXR activation in accordance with the present disclosure. […] In the following day, a 10 μL aliquot of cell culture medium was removed from each well and combined with 40 μL culture medium plus […] assay buffer (containing 20 mM of the luciferase substrate coelenterazine). After 5 min incubation, luminescence was measured using an EnVision plate reader (PerkinElmer). […]
RECORDED METRIC: EC50

Solved entries:
{"MOLECULE": "CC[C@H]1[C@@H](OC(=O)c2cccc(I)c2)[C@@H]2[C@H](CC[C@@]3(C)[C@H]2CC[C@]3(Cl)[C@H](C)CCC(=O)OC)[C@@]2(C)CCCC[C@@H]12", "EC50": "> 10000 nM"}
{"MOLECULE": "CC[C@H]1[C@@H](O)[C@@H]2[C@H](CC[C@]3(C)[C@@H]([C@H](C)CCOC(=O)NS(=O)(=O)c4ccc(N5CCCCC5)nc4)CC[C@@H]23)[C@@]2(C)CCCC[C@@H]12", "EC50": "< 1000 nM"}
{"MOLECULE": "CC[C@H]1[C@@H](O)[C@@H]2[C@H](CC[C@]3(C)[C@@H]([C@H](C)CO)CC[C@@H]23)[C@@]2(C)CCCC[C@@H]12", "EC50": "1000 to 10000 nM"}

Respectfully, I request EC50 for each entry included below.
1. CC[C@H]1[C@@H](O)[C@@H]2[C@H](CC[C@]3(C)[C@@H]([C@H](C)CCNC(=O)NS(=O)(=O)c4ccc(C(C)(CO)CO)cc4)CC[C@@H]23)[C@@]2(C)CCCC[C@@H]12
2. CC[C@H]1[C@@H](O)[C@@H]2[C@H](CC[C@]3(C)[C@@H]([C@H](C)CCNS(=O)(=O)C4CC4)CC[C@@H]23)[C@@]2(C)CCCC[C@@H]12

OUT:
< 1000 nM
1000 to 10000 nM

Report EC50 for every entry below.
1. CC[C@H]1[C@@H](O)[C@@H]2[C@H](CC[C@]3(C)[C@@H]([C@H](C)CCNC(=O)NS(=O)(=O)c4ccc(C(C)(C)CN)cc4)CC[C@@H]23)[C@@]2(C)CCCC[C@@H]12
2. CC[C@H]1[C@@H](O)[C@@H]2[C@H](CC[C@]3(C)[C@@H]([C@H](C)CCCOS(=O)(=O)O)CC[C@@H]23)[C@@]2(C)CCCC[C@@H]12
3. CC[C@H]1[C@@H](O)[C@@H]2[C@H](CC[C@]3(C)[C@@H]([C@H](C)CNC(=O)NS(=O)(=O)c4ccc(N5CCCCC5)nc4)CC[C@@H]23)[C@@]2(C)CCCC[C@@H]12
4. C[C@H](CCCOC(=O)NS(=O)(=O)c1ccc(C(C)(C)CF)cc1)[C@H]1CC[C@H]2[C@@H]3CC[C@@H]4CCCC[C@]4(C)[C@H]3CC[C@]12C
5. CC[C@H]1[C@@H](O)[C@@H]2[C@H](CC[C@]3(C)[C@@H]([C@H](C)CCNS(=O)(=O)c4cc(F)ccc4F)CC[C@@H]23)[C@@]2(C)CCCC[C@@H]12
6. CC(=O)CC[C@@H](C)[C@H]1CC[C@H]2[C@@H]3CC[C@@H]4CCCC[C@]4(C)[C@H]3CC[C@]12C

OUT:
< 1000 nM
1000 to 10000 nM
1000 to 10000 nM
1000 to 10000 nM
1000 to 10000 nM
1000 to 10000 nM

Fill in EC50 for each of the 6 molecules listed.
1. CC[C@H]1[C@@H](O)[C@@H]2[C@H](CC[C@]3(C)[C@@H]([C@H](C)CCN)CC[C@@H]23)[C@@]2(C)CCC(F)(F)C[C@@H]12
2. CC[C@H]1[C@@H](O)[C@@H]2[C@H](CC[C@]3(C)[C@@H]([C@H](C)CCNC(=O)NS(=O)(=O)N4CC5CC5C4)CC[C@@H]23)[C@@]2(C)CCCC[C@@H]12 (stereo partly drawn)
3. CC[C@H]1[C@@H](O)[C@@H]2[C@H](CC[C@]3(C)[C@@H]([C@H](C)CCNC(=O)C(=O)NS(=O)(=O)c4cc(F)cc(F)c4)CC[C@@H]23)[C@@]2(C)CCCC[C@@H]12
4. CC[C@H]1[C@@H](O)[C@@H]2[C@H](CC[C@]3(C)[C@@H]([C@H](C)CCNC(=O)NS(=O)(=O)c4ccc(C(F)(F)F)cc4)CC[C@@H]23)[C@@]2(C)CCCC[C@@H]12
5. [2H]C1CC[C@@]2(C)[C@@H](C1)[C@@H](CC)[C@@H](O)[C@@H]1[C@@H]2CC[C@]2(C)[C@@H]([C@H](C)CCNC(=O)NS(=O)(=O)c3ccc(C(C)(C)CF)cc3)CC[C@@H]12 (stereo partly drawn)
6. CC[C@H]1[C@@H](O)[C@@H]2[C@H](CC[C@]3(C)[C@@H]([C@H](C)CCC(=O)O)CC[C@@H]23)[C@@]2(C)CCCC[C@@H]12

OUT:
> 10000 nM
1000 to 10000 nM
< 1000 nM
< 1000 nM
< 1000 nM
1000 to 10000 nM

Respectfully, I request EC50 for each entry included below.
1. CC[C@H]1[C@@H](O)[C@@H]2[C@H](CC[C@]3(C)[C@@H]([C@H](C)CCNC(=O)NS(=O)(=O)c4ccc(N5CCCCC5)nc4)CC[C@@H]23)[C@@]2(C)CCCC[C@@H]12
2. CC[C@H]1[C@@H](O)[C@@H]2[C@H](CC[C@]3(C)[C@@H]([C@H](C)CCNC(=S)NS(=O)(=O)c4ccc(C(C)(C)CF)cc4)CC[C@@H]23)[C@@]2(C)CCC(F)(F)C[C@@H]12
3. CC(C[C@@H](C)[C@H]1CC[C@H]2[C@@H]3CC[C@@H]4CCCC[C@]4(C)[C@H]3CC[C@]12C)C(=O)O (stereo partly drawn)
4. CC[C@H]1[C@@H](O)[C@@H]2[C@H](CC[C@]3(C)[C@@H]([C@H](C)CCNC(=O)C(=O)O)CC[C@@H]23)[C@@]2(C)CCCC[C@@H]12

OUT:
["< 1000 nM", "< 1000 nM", "> 10000 nM", "1000 to 10000 nM"]
